assay text: xn = mol fraction of the nth substance listed
assay conditions: 298.15 K; 101.32 kPa; Liquid; x2 = 0.1
value type: viscosity (mPa·s)
Reply with just the number (in mPa·s).

{"compound": "CCCCCl [1-chlorobutane] + CCCO", "viscosity [mPa·s]": 0.44}
{"compound": "CCCCCl [1-chlorobutane] + CCCCO", "viscosity [mPa·s]": 0.453}
{"compound": "CCCCCl [1-chlorobutane] + CO", "viscosity [mPa·s]": 0.413}

INPUT: // viscosity lookup, key: CCCCCl [1-chlorobutane] + CCO
OUTPUT: 0.428

---

mass density overview
assay text: xn = mol fraction of the nth substance listed
assay conditions: 298.15 K; 101.32 kPa; Liquid; x2 = 0.9
± gives the expanded uncertainty stated by the source.
Remember to quote the unit after the number.

Here's what some known entries look like.
{"molecule": "CCCCCl [1-chlorobutane] + CCCO", "mass density": "810.7 ± 0.9 kg/m3"}
{"molecule": "CCCCCl [1-chlorobutane] + CCCCO", "mass density": "814.5 ± 0.9 kg/m3"}
{"molecule": "CCCCCl [1-chlorobutane] + CCO", "mass density": "800.9 ± 0.9 kg/m3"}

INPUT: // mass density lookup, key: CCCCCl [1-chlorobutane] + CO
OUTPUT: 806 ± 0.9 kg/m3
